Source listed as paper PMC6436931.

Target: T1, Ysh1;Mpe1 (Saccharomyces cerevisiae;Saccharomyces …, UniProt Q06224;P35728 1-779;1-441, |)
T1 sequence 1: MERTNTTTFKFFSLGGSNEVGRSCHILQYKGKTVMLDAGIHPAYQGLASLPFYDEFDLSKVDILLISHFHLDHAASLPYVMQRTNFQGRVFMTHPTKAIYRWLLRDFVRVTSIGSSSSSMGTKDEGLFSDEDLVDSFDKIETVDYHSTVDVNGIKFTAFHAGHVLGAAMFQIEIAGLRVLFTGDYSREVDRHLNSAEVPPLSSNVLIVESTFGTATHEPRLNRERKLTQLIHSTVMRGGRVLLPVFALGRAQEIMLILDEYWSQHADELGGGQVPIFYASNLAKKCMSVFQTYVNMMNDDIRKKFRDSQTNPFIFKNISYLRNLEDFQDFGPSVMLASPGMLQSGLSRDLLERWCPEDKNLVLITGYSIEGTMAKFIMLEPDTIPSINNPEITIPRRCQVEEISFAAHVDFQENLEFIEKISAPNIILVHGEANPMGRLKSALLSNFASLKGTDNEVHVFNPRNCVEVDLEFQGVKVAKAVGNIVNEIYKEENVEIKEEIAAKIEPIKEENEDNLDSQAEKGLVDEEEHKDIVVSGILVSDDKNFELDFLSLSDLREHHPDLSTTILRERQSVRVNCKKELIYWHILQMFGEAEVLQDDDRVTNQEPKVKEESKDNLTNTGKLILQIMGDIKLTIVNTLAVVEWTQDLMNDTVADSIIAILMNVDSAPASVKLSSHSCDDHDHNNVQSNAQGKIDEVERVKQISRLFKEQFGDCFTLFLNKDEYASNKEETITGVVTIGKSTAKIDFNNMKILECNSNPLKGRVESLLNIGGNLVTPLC
T1 sequence 2: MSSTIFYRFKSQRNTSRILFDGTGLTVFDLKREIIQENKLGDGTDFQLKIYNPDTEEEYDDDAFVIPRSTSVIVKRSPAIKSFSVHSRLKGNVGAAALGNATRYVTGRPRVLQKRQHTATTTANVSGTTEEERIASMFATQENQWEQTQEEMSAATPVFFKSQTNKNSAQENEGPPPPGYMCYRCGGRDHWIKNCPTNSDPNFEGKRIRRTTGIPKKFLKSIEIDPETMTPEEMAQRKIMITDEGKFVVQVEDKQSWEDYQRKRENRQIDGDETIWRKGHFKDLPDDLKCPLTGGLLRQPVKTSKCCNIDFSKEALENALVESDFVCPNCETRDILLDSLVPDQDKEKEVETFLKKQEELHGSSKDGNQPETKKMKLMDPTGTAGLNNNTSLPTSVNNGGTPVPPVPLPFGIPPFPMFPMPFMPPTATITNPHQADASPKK
Assay: EMSA; EMSA: 50 nM RNA, 0.25-4.0 uM protein, protein diluted in 10 mM HEPES pH 7.9, 150 mM NaCl, 0.5 mM Mg(OAc)2, plus 1x loading dye (orange G, glycerol, EDTA); 30 min on ice; native 6% acrylamide/TBE PAGE
Settings: protein: recombinant;recombinant; tags: ;3C-SII (C-terminal) in Ysh1-Mpe1 complexes; untagged in CPFcore; copies: 1;1; label: 5'-FAM
reported.metric: binding result

binder: UUUUUUUUUUUUUUU (ssRNA) [U15]
val: no binding

binder: CCCCCCCCCCCCCCC (ssRNA) [C15]
val: no binding

binder: AAAAAAAAAAAAAAA (ssRNA) [A15]
val: no binding

binder: GGGGGGGGGGGGGGG (ssRNA) [G15]
val: binds
